// Potency lookup, one value per entry
target: Cruzipain (Trypanosoma cruzi) (UniProt P25779); assay: Confirmation qHTS Assay for Inhibitors of Cruzain; conditions: purified cruzain, Z-FR-AMC fluorescence, 0.01% Triton; also: potency is read from the fitted curve at half-maximal effect; nearly all actives have a fitted effect of over 40% in size
Sequence (P25779 123-467 limits assumed): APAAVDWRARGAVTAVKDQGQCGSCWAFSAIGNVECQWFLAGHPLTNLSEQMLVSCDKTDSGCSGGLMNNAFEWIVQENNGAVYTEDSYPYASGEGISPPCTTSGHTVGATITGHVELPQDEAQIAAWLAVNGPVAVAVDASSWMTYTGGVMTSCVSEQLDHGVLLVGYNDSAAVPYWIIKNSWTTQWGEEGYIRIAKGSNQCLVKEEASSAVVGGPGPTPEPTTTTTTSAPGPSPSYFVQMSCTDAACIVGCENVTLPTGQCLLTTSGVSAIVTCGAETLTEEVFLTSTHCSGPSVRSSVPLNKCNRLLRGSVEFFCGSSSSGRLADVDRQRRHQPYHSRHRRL
Inconclusive results are not listed. Calls of active or inactive are those of the source. Calls follow the shape of the dose curve; as a rule, active = well fitted inhibition curve with a large enough effect; inconclusive = small, poorly fitted or top-dose-only effect; inactive = no such curve, though single readings can be large or run the other way.
value-kind: Potency

1) O=C(COC(=O)CNC(=O)C1CCCCC1)NC1CC1	15.8 µM (active)
2) Cc1cccc(C(=O)NCC(=O)OC(C(=O)Nc2cc(C(F)(F)F)ccc2Cl)c2ccccc2)c1 (stereo unspecified)	7.94 µM (active)
3) COc1ccc(OCCn2c(CCNC(=O)C3CCCCC3)nc3ccccc32)cc1	1.12 µM (active)
4) CC(C)N(CCC(=O)c1ccc2ccccc2c1)Cc1ccccc1	31.6 µM (active)
5) CC(C)C[C@H](NC(=O)[C@@H]1O[C@H]1C(=O)O)C(=O)NCCCCN=C(N)N	0.112 µM (active)
6) O=C(/C=C/c1ccc2c(c1)OCO2)Nc1ccc(-n2nncc2-c2ccccc2)cc1	2.51 µM (active)
7) Cc1ccccc1OCC(=O)NCC(=O)OCC(=O)c1ccc(Br)cc1	35.5 µM (active)
8) C=C(C)C(=O)OC1(C(F)(F)F)Oc2cc(C)ccc2NC1=O (stereo unspecified)	14.1 µM (active)
9) CCC(C)[C@@H](NC(=O)OC(C)(C)C)c1nnc(S(=O)(=O)Cc2cccc(C)c2)o1 (stereo partly specified)	14.1 µM (active)
10) O=C(CNC(=O)c1ccc2cc[nH]c2c1)OC(C(=O)Nc1cc(C(F)(F)F)ccc1Cl)c1ccccc1 (stereo unspecified)	12.6 µM (active)
11) COc1ccc(C(=O)COC(=O)CNC(=O)C2CCCCC2)c(OC)c1	14.1 µM (active)
12) C/C(CC(=O)Nc1ccc(Cl)c(Cl)c1)=N\NC(N)=S	1.12 µM (active)
13) Cn1nc(-c2ccc(Cl)cc2)nc2c(=O)n(C)c(=O)nc1-2	0.891 µM (active)
14) CC(C)(C)Nc1nc(C#N)nc(Nc2ccccc2)n1	2.24 µM (active)
15) O=C1/C(=C/c2ccco2)CCc2ccccc21	2.51 µM (active)
16) CC(C)(C)c1ccc(S(=O)(=O)c2cnc(SCC(=O)Nc3ccc(F)c(Cl)c3)[nH]c2=O)cc1	3.98 µM (active)
17) COc1cc(NC(=O)C(OC(=O)CNC(=O)c2ccccc2)c2ccccc2)cc(OC)c1 (stereo unspecified)	25.1 µM (active)
18) COc1ccc(OC)c(C(=O)COC(=O)CNC(=O)C2CCCCC2)c1	7.08 µM (active)
19) O=C(CNC(=O)c1cccc2ccccc12)OC(C(=O)Nc1cc(C(F)(F)F)ccc1Cl)c1ccccc1 (stereo unspecified)	12.6 µM (active)
20) CCN(CCO)c1nc(SC)nc2c1sc1nc(-c3ccco3)c3c(c12)CCC3	17.8 µM (active)
21) N#Cc1nc(Nc2ccccc2)nc(NC2CCCCC2)n1	1.41 µM (active)

// provenance: PubChem BioAssay AID2158
